System: T-47D breast
Method: NCI tumour cell line growth inhibition, 48 h
Readings of TGI for the listed compounds

O=C(/C=C/c1ccco1)c1ccc(Nc2ccnc3cc(Cl)ccc23)cc1 : > 100 µM
NC(=O)c1ccc(N)nc1 : > 400 µM
N#CC1=C(N)Oc2c(sc3c(F)cccc23)C1c1ccc(Cl)cc1 (stereo not given) : 25.3 µM
COC(=O)C1=C(O)C(C(=O)OC)[C@@]2(O)[C@@H](C(=O)OC)C(c3ccccc3C(F)(F)F)C[C@@H]1[C@@H]2C(=O)OC (stereo not given in full) : 5.98 µM
CCSc1sc(-c2ccc(C)cc2)nc1[P+](c1ccccc1)(c1ccccc1)c1ccccc1 : 1.27 µM

Input line: Return the recorded TGI value; entry: O=C(O)CSc1ccn(Cc2ccccc2)c1
Output line: > 100 µM

Input line: Return the recorded TGI value; entry: CCCCOP(=O)(OCCCC)C(NS(=O)(=O)c1ccccc1)(C(=O)OCC)C(F)(F)F (stereo not given)
Output line: > 100 µM

Input line: Return the recorded TGI value; entry: COc1cc(C2C3=C(COC3=O)N(CCO)c3cc4c(cc32)OCCO4)cc(OC)c1O (stereo not given)
Output line: > 50 µM

Input line: Return the recorded TGI value; entry: O=C1N2CCN=C2c2ccccc2C1(O)c1ccccc1 (stereo not given)
Output line: > 100 µM

Input line: Return the recorded TGI value; entry: S=c1sc2ccccc2n1CN1CCN(Cc2ccccc2)CC1
Output line: > 100 µM

Input line: Return the recorded TGI value; entry: O=C1C=Cc2cc3ccccc3c3cccc1c23
Output line: > 100 µM

Input line: Return the recorded TGI value; entry: Nc1c2c(nc3ccccc13)-c1ccccc1CCC2
Output line: 37.5 µM

Input line: Return the recorded TGI value; entry: N#CC1=C(N)NC(=S)NC1c1ccc(-c2ccc(-c3nc4ccccc4s3)cc2)o1 (stereo not given)
Output line: > 50 µM

Input line: Return the recorded TGI value; entry: Cc1ccc(N=c2oc3c(ccc4ccccc43)nc2Nc2ccc(C)cc2)cc1
Output line: > 100 µM

Input line: Return the recorded TGI value; entry: NC1=CN2c3ccccc3N(CC(=O)N3CCOCC3)C2C=C1 (stereo not given)
Output line: > 100 µM

---

Test system: HCC-2998 colon
Method: NCI tumour cell line growth inhibition, 48 h
Readings of TGI for the listed compounds

Solved cases below.
COc1cc(Oc2cnc3cc(N)cc(N)c3n2)cc(OC)c1OC : 32.2 µM
N#CCCN(CCN(CCN(C(=O)Nc1ccccc1)c1ccccc1)C(=O)Nc1ccccc1)C(=O)Nc1ccccc1 : > 100 µM
Cc1cccc2c1NC(c1c(C)[nH]c3ccccc13)C2 (stereo unspecified) : > 100 µM

Input line: Fetch value of TGI on HCC-2998 colon for N#CC1(Cc2ccccc2Cl)c2ccccc2C=CN1C(=O)c1ccccc1 (stereo unspecified) .
Output line: > 100 µM

Input line: Fetch value of TGI on HCC-2998 colon for C(=C/c1ccc2nc(-c3ccc(/C=C/C=N/NC4=NCCCN4)cc3)cn2c1)/C=N/NC1=NCCCN1 .
Output line: > 100 µM

Input line: Fetch value of TGI on HCC-2998 colon for NC(=O)c1ccc(N)nc1 .
Output line: > 400 µM

---

Readings of GI50 for the listed molecules
Tested on: HT29 colon
Method: NCI tumour cell line growth inhibition, 48 h

Solved cases below.
O=C1/C(=C/c2ccc(F)cc2)CN(Cc2cn(CCNc3ccnc4cc(Cl)ccc34)nn2)C/C1=C\c1ccc(F)cc1 : 680 nM
C=C1c2c(C)nn(-c3ccccc3)c2N(C)C23C[C@@H]1C1(C)c4c(C)nn(-c5ccccc5)c4N(C)C(C)(C[C@H]12)C3 (some centres not stated) : 3590 nM
COC(=O)c1ccc2c(c1)CCN2C(=O)c1cc2c(cc1Br)OCO2 : 507 nM
Cc1cc(C)c2nc(Nc3nc(C)c(C)c(=O)[nH]3)nc(C)c2c1 : 2250 nM
O=C(NCCc1ccccc1)C(c1csc2ccccc12)N(C(=O)CCl)c1ccc(-c2cnco2)cc1 (configuration not stated) : 257 nM

Input line: Return the recorded GI50 value; entry: N=C(N)c1ccc(-c2ccc(-c3ccco3)o2)cc1
Output line: 2780 nM

Input line: Return the recorded GI50 value; entry: CC([C@H]1CCC2C3CCC4C(=O)C(NC=O)=CC[C@]4(C)C3CC[C@@]21C)N(C)C (some centres not stated)
Output line: 505 nM

Input line: Return the recorded GI50 value; entry: O=C1C=Cc2cc3ccccc3c3cccc1c23
Output line: 7290 nM

Data origin: PubChem BioAssay (NCI)
